The origin of these recorded values is patent US20230201153A1.

- target_of_assay: PPARδ (Homo sapiens)
- Sequence (Q03181 whole entry): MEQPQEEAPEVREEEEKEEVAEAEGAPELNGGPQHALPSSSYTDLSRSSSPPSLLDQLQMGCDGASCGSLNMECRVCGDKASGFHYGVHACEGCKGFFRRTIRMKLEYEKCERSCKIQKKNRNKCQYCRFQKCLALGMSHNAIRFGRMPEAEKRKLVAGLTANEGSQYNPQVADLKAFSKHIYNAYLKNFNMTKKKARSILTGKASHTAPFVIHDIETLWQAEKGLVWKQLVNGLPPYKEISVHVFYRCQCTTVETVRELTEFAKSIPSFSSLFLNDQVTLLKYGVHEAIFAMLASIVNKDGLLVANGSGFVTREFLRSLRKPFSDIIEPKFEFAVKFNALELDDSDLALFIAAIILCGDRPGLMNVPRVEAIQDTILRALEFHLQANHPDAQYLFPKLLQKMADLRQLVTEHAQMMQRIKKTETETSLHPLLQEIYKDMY
- test_method_notes: PathHunter NHRscan CHO cell-based functional protein interaction assay, PPARδ agonist
- condition_set: CHO cells, 10 concentrations up to 100 μM; read-out: effective concentration needed to reach half-maximum PPARδ activity
For each of the compounds below, state its pEC50.
Give bare numbers, as −log10 of the molar value.

[[record]]
compound = "CCCCCCCCCCCCCCC(=O)O [C15:0, pentadecanoic acid]"
target_of_assay = "PPARδ (Homo sapiens)"
readout_name = "pEC50"
value_reported = 5.57


Now look at this entry.
Form field: reported pEC50 of CCCCCCCCCCCCCCCCC(=O)O [C17:0, heptadecanoic acid] 4.76

---

- target_of_assay: PPARα (Homo sapiens)
- Sequence (Q07869 1-468): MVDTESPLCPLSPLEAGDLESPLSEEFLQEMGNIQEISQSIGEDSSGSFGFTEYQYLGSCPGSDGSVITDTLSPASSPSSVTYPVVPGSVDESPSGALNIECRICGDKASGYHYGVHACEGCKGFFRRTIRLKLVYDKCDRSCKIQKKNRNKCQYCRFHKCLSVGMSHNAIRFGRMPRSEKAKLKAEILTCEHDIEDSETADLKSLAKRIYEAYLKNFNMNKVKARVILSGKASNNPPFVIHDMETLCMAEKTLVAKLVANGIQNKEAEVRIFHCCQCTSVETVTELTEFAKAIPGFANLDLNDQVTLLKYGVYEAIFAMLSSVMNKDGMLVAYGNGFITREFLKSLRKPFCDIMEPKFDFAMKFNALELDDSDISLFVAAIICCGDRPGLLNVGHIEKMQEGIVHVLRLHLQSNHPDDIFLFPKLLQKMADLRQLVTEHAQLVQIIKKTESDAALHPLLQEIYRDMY
- test_method_notes: PathHunter NHRscan CHO cell-based functional protein interaction assay, PPARα agonist
- condition_set: CHO cells, 10 concentrations up to 100 μM; read-out: effective concentration needed to reach half-maximum PPARα activity
readout_name: pEC50
Answers are plain numbers, as −log10 of the molar value.

Form field: reported pEC50 of CCCCCCCCCCCCCCC(=O)O 4.94
